# tested.target: SHP2-C SH2;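 also: peptide library displayed on the E. coli surface as eCPX fusions, selected cells deep-sequenced, score is each peptide's frequency after selection divided by its frequency in the input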
# protocol.description: SH2 binding enrichment of the phosphorylated peptide, bacterial display (enrichment ratio); higher = better substrate or ligand; peptides without Tyr show the background
property.measured: SH2 binding enrichment

The following sequences have reported results that may help.
                     item_sequence  assay_value
0  IGEVVYQRAAM [GRIN2A_Y502_V506A]        0.883
1    CTTIDYNYMCN [TP53_Y234_H233D]            1

A. MCDKEYYSVHN [MET_Y1234_Y1230C]
B. CTNIHYNYMCN [TP53_Y234_T231N]
Response body: label of entry with the larger SH2 binding enrichment; valid values A , B . Answer format: the label of the selected item.
B
(B: 1.86, A: 0.908)
